Target: NMDA receptor composed of four subunits including 2 sets of heterodimers of NR1 and NR2B (Homo sapiens)
Construct: host or cells: HEK293 (tetracycline-induced expression)
Sequence (Q13224 27-1484, other chains not shown): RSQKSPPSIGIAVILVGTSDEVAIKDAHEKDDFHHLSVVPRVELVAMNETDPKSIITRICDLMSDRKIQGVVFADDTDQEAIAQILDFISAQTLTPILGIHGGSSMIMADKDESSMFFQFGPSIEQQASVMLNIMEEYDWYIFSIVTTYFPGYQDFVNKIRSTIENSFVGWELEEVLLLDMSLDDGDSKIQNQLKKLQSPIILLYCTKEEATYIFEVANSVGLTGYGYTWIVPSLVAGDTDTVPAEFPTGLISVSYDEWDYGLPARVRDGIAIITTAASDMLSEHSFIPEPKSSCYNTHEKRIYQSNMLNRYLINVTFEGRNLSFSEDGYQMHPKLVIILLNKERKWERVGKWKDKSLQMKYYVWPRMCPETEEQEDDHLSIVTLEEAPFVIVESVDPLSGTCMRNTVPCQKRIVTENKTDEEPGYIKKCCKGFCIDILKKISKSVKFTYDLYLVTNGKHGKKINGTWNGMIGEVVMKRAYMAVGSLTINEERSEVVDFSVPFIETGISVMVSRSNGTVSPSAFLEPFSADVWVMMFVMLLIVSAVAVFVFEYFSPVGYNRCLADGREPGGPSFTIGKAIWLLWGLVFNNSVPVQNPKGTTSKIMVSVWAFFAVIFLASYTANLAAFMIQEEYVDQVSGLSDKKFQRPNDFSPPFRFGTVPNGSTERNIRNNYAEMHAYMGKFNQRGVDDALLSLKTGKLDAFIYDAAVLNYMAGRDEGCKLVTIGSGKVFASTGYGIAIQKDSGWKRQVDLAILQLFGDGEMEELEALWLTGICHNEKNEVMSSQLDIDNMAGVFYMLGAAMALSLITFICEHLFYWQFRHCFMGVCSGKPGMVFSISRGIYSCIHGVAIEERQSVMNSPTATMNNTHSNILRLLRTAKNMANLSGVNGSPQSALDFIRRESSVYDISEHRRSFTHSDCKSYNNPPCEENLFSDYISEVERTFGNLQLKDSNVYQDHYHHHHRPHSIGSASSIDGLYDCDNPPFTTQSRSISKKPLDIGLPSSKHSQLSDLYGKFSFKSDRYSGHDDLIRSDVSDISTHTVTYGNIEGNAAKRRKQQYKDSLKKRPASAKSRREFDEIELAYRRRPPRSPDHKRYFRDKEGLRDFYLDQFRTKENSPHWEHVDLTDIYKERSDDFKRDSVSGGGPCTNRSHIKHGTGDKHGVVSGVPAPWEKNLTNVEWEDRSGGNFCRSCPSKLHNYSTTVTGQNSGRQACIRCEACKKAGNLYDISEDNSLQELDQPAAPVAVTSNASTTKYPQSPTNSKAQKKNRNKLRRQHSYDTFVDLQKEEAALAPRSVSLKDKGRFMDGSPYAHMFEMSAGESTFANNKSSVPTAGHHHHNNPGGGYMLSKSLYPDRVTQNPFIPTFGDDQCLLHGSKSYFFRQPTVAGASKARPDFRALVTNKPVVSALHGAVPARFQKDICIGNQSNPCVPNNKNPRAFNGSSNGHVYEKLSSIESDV
Experiment: NR2B Ca2+ influx assay (FLIPR, Fluo-4) in HEK293 cells expressing human GRIN1 and GRIN2B
Type: cell-based
Settings: HEK293, 10 μM final compound concentration, glutamic acid/glycine-induced Ca2+ influx, read-out: inhibitory rate (10 μM compound concentration)
observable: inhibition at 10 µM (%)

A. COc1ccc2ncn(C)c2c1CNC(=O)c1ccc(Cl)c(C)c1 [Example 39]
B. O=C(NCc1cccc2[nH]nc(Br)c12)c1ccc(OC(F)(F)F)c(F)c1 [Example 272]
inhibition at 10 µM comparison. Which is larger, A or B ? Use the label to indicate which entry you chose. A

Data provenance is patent US11230541B2.
